test system: A-427; assay: relative viability (nuclei count vs DMSO), 5 days (fraction); higher = more cells survive; conditions: first compound 0.8 µM
assayReadout: relative viability
Lab note: record just the number, no unit beside it.

Take a look at these entries with their results.
COc1nc(C)cnc1NS(=O)(=O)c1cccnc1-c1ccc(-c2nnco2)cc1 [Zibotentan] + CC1(C)CCC(c2ccc(Cl)cc2)=C(CN2CCN(c3ccc(C(=O)NS(=O)(=O)c4ccc(N[C@H](CCN5CCOCC5)CSc5ccccc5)c(S(=O)(=O)C(F)(F)F)c4)cc3)CC2)C1 [Navitoclax] (partner 0.5 µM) = 0.978
O=c1cc(-c2cccc3c2Sc2ccccc2S3)oc(N2CCOCC2)c1 + COc1cccc2cc(-c3nc([C@H]4CC[C@H](C(=O)O)CC4)n4ncnc(N)c34)[nH]c12 [OSI-027] (partner 0.5 µM) = 0.573

Now look at this entry.
QUERY: Need relative viability, item COc1nc(C)cnc1NS(=O)(=O)c1cccnc1-c1ccc(-c2nnco2)cc1 [Zibotentan] + Nc1nc2[nH]cc(CCc3ccc(C(=O)N[C@@H](CCC(=O)O)C(=O)O)cc3)c2c(=O)[nH]1 [Pemetrexed] (partner 0.2 µM)
RESULT: 0.95

----------
Entries annotated with measured relative viability
test system: NCI-H1792; assay: relative viability (nuclei count vs DMSO), 5 days (fraction); higher = more cells survive; details: first compound 8 µM
// no unit string in output, number only

Worked cases, answers included:
O=c1cc(-c2cccc3c2Sc2ccccc2S3)oc(N2CCOCC2)c1 + CCNC(=O)c1noc(-c2cc(C(C)C)c(O)cc2O)c1-c1ccc(CN2CCOCC2)cc1 [Luminespib] (partner 0.01 µM) = 0.328
O=c1cc(-c2cccc3c2Sc2ccccc2S3)oc(N2CCOCC2)c1 + C[C@@H](Oc1cc(-c2cnn(C3CCNCC3)c2)cnc1N)c1c(Cl)ccc(F)c1Cl [Crizotinib] (partner 1 µM) = 1.19
O=c1cc(-c2cccc3c2Sc2ccccc2S3)oc(N2CCOCC2)c1 + Cc1nc(NC(=O)N2CCC[C@H]2C(N)=O)sc1-c1ccnc(C(C)(C)C(F)(F)F)c1 [Alpelisib] (partner 2 µM) = 0.712

Turning now to a further record.
QUERY: # lookup: relative viability of O=c1cc(-c2cccc3c2Sc2ccccc2S3)oc(N2CCOCC2)c1 + CC1(C)CCC(c2ccc(Cl)cc2)=C(CN2CCN(c3ccc(C(=O)NS(=O)(=O)c4ccc(N[C@H](CCN5CCOCC5)CSc5ccccc5)c(S(=O)(=O)C(F)(F)F)c4)cc3)CC2)C1 [Navitoclax] (partner 0.5 µM)
RESULT: 0.689

----------
tested on: NCI-H2347; test: relative viability (nuclei count vs DMSO), 5 days (fraction); higher = more cells survive; details: first compound 2.53 µM
Each record here notes measured relative viability.
I only need the number, thanks.

QUERY: Look up relative viability for this compound: O=c1cc(-c2cccc3c2Sc2ccccc2S3)oc(N2CCOCC2)c1 + CS(=O)(=O)N1CCN(Cc2cc3nc(-c4cccc5[nH]ncc45)nc(N4CCOCC4)c3s2)CC1 [Pictilisib] (partner 1 µM)
RESULT: 0.733

QUERY: Any idea what relative viability was measured for O=c1cc(-c2cccc3c2Sc2ccccc2S3)oc(N2CCOCC2)c1 + Cc1cc(Nc2cc(N3CCN(C)CC3)nc(Sc3ccc(NC(=O)C4CC4)cc3)n2)n[nH]1 [Tozasertib] (partner 0.1 µM) ?
RESULT: 0.53

QUERY: Please look up its relative viability: COc1nc(C)cnc1NS(=O)(=O)c1cccnc1-c1ccc(-c2nnco2)cc1 [Zibotentan] + CS(=O)(=O)CCNCc1ccc(-c2ccc3ncnc(Nc4ccc(OCc5cccc(F)c5)c(Cl)c4)c3c2)o1 [Lapatinib] (partner 2 µM)
RESULT: 0.943

QUERY: Which relative viability is reported for this compound? COc1nc(C)cnc1NS(=O)(=O)c1cccnc1-c1ccc(-c2nnco2)cc1 [Zibotentan] + COc1cc2c(Oc3ccc(NC(=O)C4(C(=O)Nc5ccc(F)cc5)CC4)cc3F)ccnc2cc1OCCCN1CCOCC1 [Foretinib] (partner 0.25 µM)
RESULT: 0.655

----------
system: NCI-H1792; assay: relative viability (nuclei count vs DMSO), 5 days (fraction); higher = more cells survive; settings: first compound 0.253 µM
assayReadout: relative viability
Respond with the number and no other words.

O=c1cc(-c2cccc3c2Sc2ccccc2S3)oc(N2CCOCC2)c1 + CC(C)C[C@H](NC(=O)[C@H](Cc1ccccc1)NC(=O)c1cnccn1)B(O)O [Bortezomib] (partner 0.002 µM) = 1.4
O=c1cc(-c2cccc3c2Sc2ccccc2S3)oc(N2CCOCC2)c1 + Nc1ncn([C@H]2C[C@H](O)[C@@H](CO)O2)c(=O)n1 [Decitabine] (partner 2 µM) = 0.828
O=c1cc(-c2cccc3c2Sc2ccccc2S3)oc(N2CCOCC2)c1 + Nc1nc2[nH]cc(CCc3ccc(C(=O)N[C@@H](CCC(=O)O)C(=O)O)cc3)c2c(=O)[nH]1 [Pemetrexed] (partner 0.2 µM) = 1.54
COc1nc(C)cnc1NS(=O)(=O)c1cccnc1-c1ccc(-c2nnco2)cc1 [Zibotentan] + NC(=O)Nc1cc(-c2cccc(F)c2)sc1C(=O)N[C@H]1CCCNC1 [AZD7762] (partner 0.2 µM) = 0.604
COc1nc(C)cnc1NS(=O)(=O)c1cccnc1-c1ccc(-c2nnco2)cc1 [Zibotentan] + Nc1ncn([C@H]2C[C@H](O)[C@@H](CO)O2)c(=O)n1 [Decitabine] (partner 2 µM) = 0.549

Attention now turns to another entry.
QUERY: Provide value of relative viability for this record tested with NCI-H1792: O=c1cc(-c2cccc3c2Sc2ccccc2S3)oc(N2CCOCC2)c1 + COc1cccc2cc(-c3nc([C@H]4CC[C@H](C(=O)O)CC4)n4ncnc(N)c34)[nH]c12 [OSI-027] (partner 0.5 µM)
RESULT: 0.803

----------
tested on: NCI-H322M; experiment: relative viability (nuclei count vs DMSO), 5 days (fraction); higher = more cells survive; details: first compound 2.53 µM
Each entry below lists one item and its recorded relative viability value.
Output: the number by itself.

A selection of reference data follows.
O=c1cc(-c2cccc3c2Sc2ccccc2S3)oc(N2CCOCC2)c1 + NC(=O)Nc1cc(-c2cccc(F)c2)sc1C(=O)N[C@H]1CCCNC1 [AZD7762] (partner 0.2 µM) = 0.429
COc1nc(C)cnc1NS(=O)(=O)c1cccnc1-c1ccc(-c2nnco2)cc1 [Zibotentan] + O=C(CCCCCCC(=O)Nc1ccccc1)NO [Vorinostat] (partner 1 µM) = 0.93

Consider the record given below.
QUERY: Tell me the measured relative viability of COc1nc(C)cnc1NS(=O)(=O)c1cccnc1-c1ccc(-c2nnco2)cc1 [Zibotentan] + CC1(C)CCC(c2ccc(Cl)cc2)=C(CN2CCN(c3ccc(C(=O)NS(=O)(=O)c4ccc(N[C@H](CCN5CCOCC5)CSc5ccccc5)c(S(=O)(=O)C(F)(F)F)c4)cc3)CC2)C1 [Navitoclax] (partner 0.5 µM) , please.
RESULT: 1.3

----------
tested on: NCI-H2126; experiment: relative viability (nuclei count vs DMSO), 5 days (fraction); higher = more cells survive; conditions: first compound 8 µM
Returns: string. Value is Criterion met if measured relative viability is below 0.8, and Criterion not met if it is greater than or equal to it.

O=c1cc(-c2cccc3c2Sc2ccccc2S3)oc(N2CCOCC2)c1 + Cc1nc(NC(=O)N2CCC[C@H]2C(N)=O)sc1-c1ccnc(C(C)(C)C(F)(F)F)c1 [Alpelisib] (partner 2 µM) = Criterion met

QUERY: Say whether its relative viability is strictly beneath 0.8. Entry: O=c1cc(-c2cccc3c2Sc2ccccc2S3)oc(N2CCOCC2)c1 + CC(=O)Nc1cccc(-n2c(=O)n(C3CC3)c(=O)c3c(Nc4ccc(I)cc4F)n(C)c(=O)c(C)c32)c1 [Trametinib] (partner 0.02 µM)
RESULT: Criterion met

QUERY: Lab note: confirm whether the reported relative viability for this molecule is below 0.8, equality not counting. molecule: O=c1cc(-c2cccc3c2Sc2ccccc2S3)oc(N2CCOCC2)c1 + O=C(c1cc(Cc2n[nH]c(=O)c3ccccc23)ccc1F)N1CCN(C(=O)C2CC2)CC1 [Olaparib] (partner 8 µM)
RESULT: Criterion not met

QUERY: Is 0.8 strictly greater than the molecule's reported relative viability? molecule: O=c1cc(-c2cccc3c2Sc2ccccc2S3)oc(N2CCOCC2)c1 + CCNC(=O)c1noc(-c2cc(C(C)C)c(O)cc2O)c1-c1ccc(CN2CCOCC2)cc1 [Luminespib] (partner 0.01 µM)
RESULT: Criterion not met

----------
system: NCI-H2405; experiment: relative viability (nuclei count vs DMSO), 5 days (fraction); higher = more cells survive; conditions: first compound 0.01 µM
assayReadout: relative viability
Just the number, please.

Observe how each entry below is paired with its result.
O=c1cc(N2CCOCC2)oc2c(-c3cccc4c3sc3ccccc34)cccc12 + Nc1nc2[nH]cc(CCc3ccc(C(=O)N[C@@H](CCC(=O)O)C(=O)O)cc3)c2c(=O)[nH]1 [Pemetrexed] (partner 0.2 µM) = 1.02
CCN(CC)CCCCNc1ncc2cc(-c3cc(OC)cc(OC)c3)c(NC(=O)NC(C)(C)C)nc2n1 + O=C(c1cc(Cc2n[nH]c(=O)c3ccccc23)ccc1F)N1CCN(C(=O)C2CC2)CC1 [Olaparib] (partner 8 µM) = 0.873
CCN(CC)CCCCNc1ncc2cc(-c3cc(OC)cc(OC)c3)c(NC(=O)NC(C)(C)C)nc2n1 + CCNC(=O)c1noc(-c2cc(C(C)C)c(O)cc2O)c1-c1ccc(CN2CCOCC2)cc1 [Luminespib] (partner 0.01 µM) = 0.649

QUERY: Please give the measured relative viability for this molecule: CCN(CC)CCCCNc1ncc2cc(-c3cc(OC)cc(OC)c3)c(NC(=O)NC(C)(C)C)nc2n1 + CC(C)C[C@H](NC(=O)[C@H](Cc1ccccc1)NC(=O)c1cnccn1)B(O)O [Bortezomib] (partner 0.002 µM)
RESULT: 0.973

// provenance: the supplement of paper PMC10307832
